Tested on: U251 CNS
Assay: NCI tumour cell line growth inhibition, 48 h
attributeMeasured: TGI

// solved cases for TGI follow
{"compound": "CCN1CCN(Cc2ccc(NC(=O)Nc3nc(-c4cc(OC)c(OC)c(OC)c4)cs3)cc2C(F)(F)F)CC1", "observedResult": "2.81 µM"}
{"compound": "COc1ccc(C2=C(c3ccccc3)C(=O)N3CCCC3C2)cc1 (stereo not given)", "observedResult": "> 100 µM"}
{"compound": "COC(=O)[C@]12CC[C@H]3CN(S(=O)(=O)c4ccc(C)cc4)[C@H]([C@H]31)[C@H](c1ccco1)N2S(=O)(=O)c1ccc(C)cc1", "observedResult": "> 100 µM"}
{"compound": "CCCCC/C=C\\C=C\\CCCCCCCCC(=O)OC", "observedResult": "> 100 µM"}

For the next question, use this compound.
Data request, read-out TGI, for Cc1cn(CC(=S)NCCc2c[nH]c3ccccc23)c(=O)[nH]c1=O
> 100 µM
